# experiment_description: Pharmacokinetics of M6G at single and multiple intravenous doses in healthy volunteers
# Format: in vivo, human
# test_settings: both sexes, human, plasma, iv, 15 mg/70 kg, single 5 min iv infusion 15 mg; Geometric Mean; read-out: Cmax
# Method: Healthy male and female subjects were divided into two groups (A and B) with 12 in each. Group A received three single intravenous infusions of M6G over 5 mins at levels of 15, 30 and 45 mg/70 kg in random order, having taken 50 mg of naloxone orally 24 hrs beforehand. […] Vital signs (supine blood pressure, pulse, respiratory rate and oral temperature), respiration rate, pulse oximetry and adverse events were monitored during the study. Plasma levels of M6G were measured using HPLC/ms/ms.
outcome_measure: Cmax (ng/mL)
Please state the figure in ng/mL; there is no need to write the unit.

Task: I am curious: what Cmax value has been reported for CN1CC[C@]23c4c5ccc(O)c4O[C@H]2[C@@H](OC2OC(C(=O)O)C(O)C(O)C2O)C=CC3[C@H]1C5 (stereo partly shown) ?
Result: 1750

* * *

# experiment_description: Pharmacokinetics of M6G at single and multiple intravenous doses in healthy volunteers
# Assay type: in vivo, human
# test_settings: both sexes, human, plasma, iv, 45 mg/70 kg, single 5 min iv infusion 45 mg; Geometric Mean; read-out: AUC0-∞
outcome_measure: AUC(0-inf)

Task: Item under review: CN1CC[C@]23c4c5ccc(O)c4O[C@H]2[C@@H](OC2OC(C(=O)O)C(O)C(O)C2O)C=CC3[C@H]1C5 (stereo partly shown) [M6G] . Reported AUC(0-inf)?
Result: 5850 ng·h/mL

* * *

# experiment_description: Pharmacokinetics of M6G at single and multiple intravenous doses in healthy volunteers
# Format: in vivo, human
# test_settings: both sexes, human, plasma, iv, 30 mg/70 kg, single 5 min iv infusion 30 mg; Geometric Mean; read-out: t½ (converted)
outcome_measure: half-life

Task: Report half-life for CN1CC[C@]23c4c5ccc(O)c4O[C@H]2[C@@H](OC2OC(C(=O)O)C(O)C(O)C2O)C=CC3[C@H]1C5 (stereo partly shown) [M6G] please.
Result: 1.7 h

* * *

# experiment_description: Pharmacokinetics of M6G at single and multiple intravenous doses in healthy volunteers
# Format: in vivo, human
# test_settings: both sexes, human, plasma, intravenous, 45 mg/70 kg, single 5 min infusion 45 mg/70 kg; read-out: AUC0-∞, Geometric LS means
outcome_measure: AUC(0-inf) (ng·h/mL)
Form entry: value (ng·h/mL) — number only.

Task: # lookup: AUC(0-inf) of CN1CC[C@]23c4c5ccc(O)c4O[C@H]2[C@@H](OC2OC(C(=O)O)C(O)C(O)C2O)C=CC3[C@H]1C5 (stereo partly shown)
Result: 5850

* * *

# experiment_description: Pharmacokinetics of M6G at single and multiple intravenous doses in healthy volunteers
# Assay type: in vivo, human
# test_settings: both sexes, human, plasma, intravenous, 15 mg/70 kg, multiple dose, Dose 1-15 mg; Geometric Mean; read-out: Vss
# Method: Healthy male and female subjects were divided into two groups (A and B) with 12 in each. Group A received three single intravenous infusions of M6G over 5 mins at levels of 15, 30 and 45 mg/70 kg in random order, having taken 50 mg of naloxone orally 24 hrs beforehand. […] Vital signs (supine blood pressure, pulse, respiratory rate and oral temperature), respiration rate, pulse oximetry and adverse events were monitored during the study. Plasma levels of M6G were measured using HPLC/ms/ms.
outcome_measure: Vd
Be sure to follow the number with its unit.

Task: Fill in: Vd of CN1CC[C@]23c4c5ccc(O)c4O[C@H]2[C@@H](OC2OC(C(=O)O)C(O)C(O)C2O)C=CC3[C@H]1C5 (stereo partly shown) [M6G] is ___
Result: 14.7 L
